// provenance: patent US20220265842A1

molecular target: human CD40 Transcript 1 (Myc-DDK-tagged) on HEK293 GRE reporter cells (human, UniProt P25942 21-277); assay: cell-based or functional assay
Sequence (P25942 21-277): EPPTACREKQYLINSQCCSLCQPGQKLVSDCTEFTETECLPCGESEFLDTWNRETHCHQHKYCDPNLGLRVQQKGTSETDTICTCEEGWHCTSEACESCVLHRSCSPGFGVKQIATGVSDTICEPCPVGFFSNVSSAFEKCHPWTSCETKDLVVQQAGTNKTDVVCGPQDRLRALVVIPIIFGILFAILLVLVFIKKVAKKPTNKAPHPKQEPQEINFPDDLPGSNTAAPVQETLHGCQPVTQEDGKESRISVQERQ
Attribute Measured: hCD40 GRE (% max) (%)
Write the number in % without appending the unit.

Reported hCD40 GRE (% max), binder Example 28-conjugated (human), n=4 (antibody, human IgG1, kappa, L234A L235A, DAR 4, V domains shown, glucocorticoid drug-linker of Precursor Example 28 (bromoacetamide) on cysteine thiols of reduced interchain disulfides; n=4 per antibody; positions not given) VH: EVQLVESGGGLVKPGGSLRLSCAASGFTFSDYGMNWVRQAPGKGLEWIAYISSGRGNIYYADTVKGRFTISRDNAKNSLYLQMNSLRAEDTAVYYCARSWGYFDVWGQGTTVTVSS VL: DIVMTQSPDSLAVSLGERATINCKSSQSLLNRGNQKNYLTWFQQKPGQPPKLLIYWASTRESGVPDRFSGSGSGTDFTLTISSLQAEDVAVYYCQNDYTYPLTFGQGTKLEIKR : ____ 77
